Molecular target: Myosin light chain kinase, smooth muscle (Homo sapiens) (UniProt Q15746)
Sequence (Q15746 whole entry): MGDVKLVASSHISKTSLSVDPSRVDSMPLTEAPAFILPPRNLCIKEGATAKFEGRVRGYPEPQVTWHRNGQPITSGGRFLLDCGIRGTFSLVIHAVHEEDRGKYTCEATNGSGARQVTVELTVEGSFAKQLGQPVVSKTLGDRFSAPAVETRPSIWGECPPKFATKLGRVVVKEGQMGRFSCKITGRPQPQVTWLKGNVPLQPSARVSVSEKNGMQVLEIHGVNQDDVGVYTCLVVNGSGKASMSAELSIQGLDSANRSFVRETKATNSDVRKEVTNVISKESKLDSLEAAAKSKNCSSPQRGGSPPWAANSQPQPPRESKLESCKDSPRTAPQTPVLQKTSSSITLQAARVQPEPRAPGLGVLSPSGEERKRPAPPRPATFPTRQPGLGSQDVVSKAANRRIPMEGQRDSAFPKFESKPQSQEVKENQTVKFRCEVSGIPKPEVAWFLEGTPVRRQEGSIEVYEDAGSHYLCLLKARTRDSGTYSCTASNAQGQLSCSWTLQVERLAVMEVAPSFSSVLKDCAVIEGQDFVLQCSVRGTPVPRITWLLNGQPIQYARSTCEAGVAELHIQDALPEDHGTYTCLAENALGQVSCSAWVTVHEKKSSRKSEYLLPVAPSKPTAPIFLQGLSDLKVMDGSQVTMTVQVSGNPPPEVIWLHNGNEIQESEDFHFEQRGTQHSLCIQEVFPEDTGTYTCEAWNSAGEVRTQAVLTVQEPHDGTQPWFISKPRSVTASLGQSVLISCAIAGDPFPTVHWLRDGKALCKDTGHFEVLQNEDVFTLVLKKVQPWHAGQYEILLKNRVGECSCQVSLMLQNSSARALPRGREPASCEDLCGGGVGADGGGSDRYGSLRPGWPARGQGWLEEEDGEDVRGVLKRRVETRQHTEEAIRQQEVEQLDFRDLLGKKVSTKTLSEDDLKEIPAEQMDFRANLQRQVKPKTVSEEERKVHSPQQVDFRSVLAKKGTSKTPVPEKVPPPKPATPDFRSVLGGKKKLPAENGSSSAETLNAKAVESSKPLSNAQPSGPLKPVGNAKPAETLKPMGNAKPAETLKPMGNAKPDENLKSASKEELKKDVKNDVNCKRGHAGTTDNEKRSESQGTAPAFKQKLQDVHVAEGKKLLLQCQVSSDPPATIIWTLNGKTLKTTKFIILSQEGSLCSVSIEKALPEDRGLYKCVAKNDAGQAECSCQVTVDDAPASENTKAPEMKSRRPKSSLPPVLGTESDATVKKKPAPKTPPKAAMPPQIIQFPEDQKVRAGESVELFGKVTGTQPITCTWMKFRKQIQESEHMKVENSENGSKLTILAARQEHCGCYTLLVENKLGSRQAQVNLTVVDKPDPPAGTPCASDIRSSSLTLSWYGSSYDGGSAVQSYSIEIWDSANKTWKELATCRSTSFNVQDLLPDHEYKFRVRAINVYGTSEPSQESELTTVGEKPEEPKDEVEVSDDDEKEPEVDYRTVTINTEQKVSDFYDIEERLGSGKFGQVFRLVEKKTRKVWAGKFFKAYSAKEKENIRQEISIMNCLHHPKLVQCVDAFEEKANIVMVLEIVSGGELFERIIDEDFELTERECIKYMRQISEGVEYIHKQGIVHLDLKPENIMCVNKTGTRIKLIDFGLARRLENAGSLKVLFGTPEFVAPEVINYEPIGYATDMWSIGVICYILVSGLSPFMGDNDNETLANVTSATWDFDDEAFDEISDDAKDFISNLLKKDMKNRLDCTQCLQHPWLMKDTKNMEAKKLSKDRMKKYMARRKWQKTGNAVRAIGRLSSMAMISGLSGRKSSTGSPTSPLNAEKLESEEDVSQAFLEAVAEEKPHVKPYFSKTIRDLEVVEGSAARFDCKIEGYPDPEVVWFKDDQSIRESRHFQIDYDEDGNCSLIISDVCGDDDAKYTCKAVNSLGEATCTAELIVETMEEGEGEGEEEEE
Settings: at 1 µM
Give residual activity for every item shown.
Kindly answer with a numeric value in %, unit omitted.

residual activity in this record for Ic1cccc(CSc2nnc(-c3ccncc3)o2)c1 : 84

residual activity in this record for O=c1cc(-c2cccc3c2Sc2ccccc2S3)oc(N2CCOCC2)c1 : 114

residual activity in this record for O=C(Nc1cccc(Nc2cc(Nc3cccc(C(F)(F)F)c3)ncn2)c1)C1CC1 : 75

residual activity in this record for O=c1c2ccccc2[nH]c(=S)n1CCN1CCC(=C(c2ccc(F)cc2)c2ccc(F)cc2)CC1 : 73

residual activity in this record for CC[n+]1c(/C=C/N(C)c2ccccc2)n(-c2ccccc2)c2ccc(-c3nc4ccccc4s3)cc21 : 80

residual activity in this record for COc1cccc(-c2cc(=O)c3ccccc3o2)c1N : 107

residual activity in this record for CN(C)c1ccc(/C=C2\C(=O)Nc3ccccc32)cc1 : 77

residual activity in this record for O=C1NC(=O)c2cc(Nc3ccc(F)cc3)c(Nc3ccc(F)cc3)cc21 : 55

residual activity in this record for Cc1ccc(NC2=CC(=O)c3sc(C)nc3C2=O)cc1 : 101

Values from ChEMBL document CHEMBL2218924
